molecular target: Polyunsaturated fatty acid lipoxygenase ALOX12 (Homo sapiens); test: Confirmation qHTS Assay for Inhibitors of 12-hLO (12-human lipoxygenase); settings: purified 12-hLO, xylenol orange absorbance
Results filed as inconclusive are left out. The source made the active and inactive calls. Calls follow the shape of the dose curve; as a rule, active = well fitted inhibition curve with a large enough effect; inconclusive = small, poorly fitted or top-dose-only effect; inactive = flat fitted curve, though single readings scatter.
assayMetric: Potency

Some molecules with known Potency results, for comparison:
molecule: CCCC(=O)NC(c1ccco1)c1cc(Cl)c2cccnc2c1O (stereo unspecified)
result: 2.82 µM (active)
//
molecule: Oc1ccc2ccccc2c1CNc1cnc2ccccc2c1
result: 5.01 µM (active)
//
molecule: CCC(=O)NC(c1cccs1)c1cc(Cl)c2cccnc2c1O (stereo unspecified)
result: 7.94 µM (active)
//
molecule: CCC(=O)NC(c1ccc(C)s1)c1cc(Cl)c2cccnc2c1O (stereo unspecified)
result: 39.8 µM (active)
//
molecule: Oc1ccccc1C1Nc2cccc3cccc(c23)N1
result: 39.8 µM (active)

Potency for CCC(=O)NC(c1ccc(F)cc1)c1cc(Cl)c2cccnc2c1O (stereo unspecified) ?
15.8 µM (active)

====

target: Polyunsaturated fatty acid lipoxygenase ALOX12 (Homo sapiens); assay: Confirmation qHTS Assay for Inhibitors of 12-hLO (12-human lipoxygenase); details: purified 12-hLO, xylenol orange absorbance
Records with an inconclusive call do not appear. Active and inactive are the calls of the source. Calls follow the shape of the dose curve; as a rule, active = well fitted inhibition curve with a large enough effect; inconclusive = small, poorly fitted or top-dose-only effect; inactive = flat fitted curve, though single readings scatter.
For each entry below, report its Potency value.

Some compounds with known Potency results, for comparison:
compound: CCC(=O)NC(c1ccc(C)cc1)c1cc(Cl)c2cccnc2c1O (configuration not stated)
Potency: 28.2 µM (active)
//
compound: CC(=O)N1CCN(c2ccc(NCc3ccccc3)cc2)CC1
Potency: 31.6 µM (active)
//
compound: c1csc(C2Nc3cccc4cccc(c34)N2)c1
Potency: 15.8 µM (active)
//
compound: O=C(Nc1nc2n(n1)C(c1ccccc1)CC(c1ccc(Cl)cc1)N2)c1ccco1 (configuration not stated)
Potency: 14.1 µM (active)

Provide the reported Potency of each entry below, same order.
1. CCC(=O)NC(c1ccc(C)cc1)c1cc([N+](=O)[O-])c2cccnc2c1O (configuration not stated)
2. Oc1ccc(CNc2ccccc2)c2cccnc12
3. CNc1oc(-c2cccc3ccccc23)nc1C#N

28.2 µM (active)
11.2 µM (active)
4.47 µM (active)

====

For each entry below, report its activity change, negative = inhibition value.
target: Polyunsaturated fatty acid lipoxygenase ALOX12 (Homo sapiens); experiment: Confirmation qHTS Assay for Inhibitors of 12-hLO (12-human lipoxygenase); conditions: purified 12-hLO, xylenol orange absorbance; stronger effect = lower value
Inconclusive results are not listed.
Answers are plain numbers, in %.

Some molecules with known activity change, negative = inhibition results, for comparison:
molecule: OCC#CCSc1nnc(-c2cccc3ccccc23)o1
activity change, negative = inhibition / %: -15.8
//
molecule: COc1cccc(-c2nccc(NCc3ccccc3OC)n2)c1
activity change, negative = inhibition / %: -13.1
//
molecule: N#Cc1nc(-c2ccc(OCc3ccc(Cl)cc3)cc2)oc1N1CCC(C(N)=O)CC1
activity change, negative = inhibition / %: -12.9

Provide the reported activity change, negative = inhibition of each entry below, same order.
1. COc1ccccc1-n1c(SCC(=O)Nc2ccc(C)cc2)nc(O)cc1=O
2. O=C(Nc1cccc(F)c1)N1CCCC2(CCN(C(=O)c3ccco3)CC2)C1
3. COc1ccc(OC)c(NC(=O)NC2(C(F)(F)F)Oc3ccccc3O2)c1
4. O=C(OCC#CCSc1nnc(-c2cccc3ccccc23)o1)c1cnc[nH]1
5. CC(=O)[C@@H]1[C@@H]2C(=O)N(Cc3ccccc3)C(=O)[C@@H]2C2c3ccccc3C=CN21 (stereo partly drawn)
6. CN(C)CCC(=O)c1ccc(Cl)cc1

1. -21
2. 5.23
3. -12.7
4. -8.94
5. -19.1
6. -17.8

Provide the reported activity change, negative = inhibition of each entry below, same order.
1. CNc1oc(-c2cccs2)nc1C#N
2. Cc1cc(/C=N/NC(=O)Cn2c3ccccc3c(=O)c3ccccc32)c(C)n1-c1ccccc1
3. COC(=O)c1ccc(C(=S)N2CCOCC2)cc1
4. O=C(NCC#CCSc1nnc(-c2cccc3ccccc23)o1)c1cccs1
5. COc1cccc(-c2nc(NC3CCNCC3)c3ccccc3n2)c1
6. Cc1ccc(OCC(=O)Nc2ccc(N3CCCC3)cc2)cc1C

-10.4
-20.8
-15.6
-3.59
-5.22
-27.5

Provide the reported activity change, negative = inhibition of each entry below, same order.
1. CCOC(=O)c1c(NC(=O)CN2CCOCC2)sc2c1CCCC2
2. O=C(OCC#CCSc1nnc(-c2cccc3ccccc23)o1)c1ccc2ccccc2c1

[-5.92, -5.58]

Provide the reported activity change, negative = inhibition of each entry below, same order.
1. N#Cc1nc(-c2cccc3ccccc23)oc1NCC#CCOC(=O)c1cccs1
2. O=C1C2C3CCCC3=C3CCCC3C2C(=O)N1c1cccc(Cl)c1 (stereo not drawn)
3. CCCCn1c(NC(C)=O)c(C#N)c2nc3ccccc3nc21

1. -20.1
2. -9.6
3. -16
